// reported IC50 at 48 h for each item listed
Experiment: GSK_TCAKS: pIC50 HepG2 human cell line viability assay using luminiscence. […] Seeding density was checked to ensure that new mono-layers were not more than 50% confluent at the time of harvesting. Cell suspension was added to 500 mL of the same medium at a final density of 1.2 * 10^5 cells/mL. This cell suspension was dispensed (25 uL, 3000 cells per well) into 384-well clear-bottom plates using a Multidrop Combi dispenser. Prior to addition of the cell suspension, the screening compounds (250 nL) were pre-dispensed into the plates with an Echo liquid handler. Plates were incubated for 48 h at 37C, 5% CO2. After incubation, plates equilibrated at room temperature for 30 min before proceeding to develop the luminescent signal. The signal developer, CellTiter-Glo Reagent, was allowed to equilibrate at room temperature for 30 min and added to the plates (25uL per well) using a Multidrop Combi dispenser. Plates were left for 10 min at room temperature for stabilization and then read using a ViewLux.
Type: toxicity, cell-based

Below, 3 compounds whose answers are already recorded.
query: Sample O=c1[nH]c(C=Cc2cccc(OCCOc3ccccc3)c2)nc(O)c1[N+](=O)[O-] — what was its IC50 at 48 h?
result: > 100 µM

query: Sample COc1ccccc1C=CCN1C[C@H]2CCC[C@@H](C1)C2(O)c1cccnc1 (some centres not stated) — what was its IC50 at 48 h?
result: > 100 µM

query: Sample O=c1ccc2ccc(F)c3c2n1C[C@H]3CN1CCN(CC(O)c2cc3c(cn2)OCS3)CC1 (some centres not stated) — what was its IC50 at 48 h?
result: > 100 µM

More entries:
query: Sample Cn1nc(C(=O)N2CCc3ccccc32)c2c1CCS(=O)(=O)C2 — what was its IC50 at 48 h?
result: > 100 µM

query: Sample Cc1c(Nc2cc(C3CC3)n[nH]2)ccc(C#N)c1Cl — what was its IC50 at 48 h?
result: 39.8 µM

====

Target: Sterol 14-alpha demethylase (Trypanosoma cruzi (strain CL Brener), UniProt Q7Z1V1)
Sequence (Q7Z1V1 whole entry): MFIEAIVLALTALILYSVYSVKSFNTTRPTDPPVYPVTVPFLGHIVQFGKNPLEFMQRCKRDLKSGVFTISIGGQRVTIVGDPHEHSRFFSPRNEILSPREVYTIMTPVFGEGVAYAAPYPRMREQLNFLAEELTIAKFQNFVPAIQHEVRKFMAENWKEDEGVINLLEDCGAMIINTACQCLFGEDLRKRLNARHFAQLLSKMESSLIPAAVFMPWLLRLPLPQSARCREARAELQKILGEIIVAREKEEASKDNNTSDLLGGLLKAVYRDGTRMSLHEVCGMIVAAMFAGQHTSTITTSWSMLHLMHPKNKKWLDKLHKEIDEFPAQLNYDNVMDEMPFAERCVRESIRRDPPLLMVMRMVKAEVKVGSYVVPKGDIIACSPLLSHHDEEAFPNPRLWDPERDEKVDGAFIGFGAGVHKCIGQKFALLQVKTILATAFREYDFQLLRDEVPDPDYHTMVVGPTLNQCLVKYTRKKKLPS
Assay: GSK_TCAKS: pIC50 CYP51 from Trypanosoma cruzi.
// reported pIC50 for each item listed
The quantity pIC50 is defined as the negative base-10 logarithm of the molar concentration.

query: Form: Entry = CNS(=O)(=O)c1ccccc1Nc1nc(Nc2cc(C)nn2C)ncc1Cl | System = Sterol 14-alpha demethylase (Trypanosoma cruzi (strain CL Brener), UniProt Q7Z1V1) | pIC50 = ____
result: 4.60

query: Form: Entry = O=c1ccc2ccc(F)c3c2n1C[C@H]3CN1CCC(NCc2cc3ccccc3o2)CC1 | System = Sterol 14-alpha demethylase (Trypanosoma cruzi (strain CL Brener), UniProt Q7Z1V1) | pIC50 = ____
result: 4.50

More entries:
query: Form: Entry = Oc1nccc2ccc(-c3ccncc3)cc12 | System = Sterol 14-alpha demethylase (Trypanosoma cruzi (strain CL Brener), UniProt Q7Z1V1) | pIC50 = ____
result: 7.80

====

Target: Sterol 14-alpha demethylase (Trypanosoma cruzi (strain CL Brener))
Test: GSK_TCAKS: pIC50 CYP51 from Trypanosoma cruzi.
// reported IC50 for each item listed
// return numeric value only (unit: µM, not printed)

Below, 8 compounds whose answers are already recorded.
query: Form: Entry = CCOc1cnn(C)c(=O)c1Nc1ccc(C(=O)NCc2ccc(F)cc2)cc1 | System = Sterol 14-alpha demethylase (Trypanosoma cruzi (strain CL Brener)) | IC50 = ____
result: 3.98

query: Form: Entry = Cn1cncc1CN1CCC2(CC1)COC(Cc1ccccc1)C2 (stereo not drawn) | System = Sterol 14-alpha demethylase (Trypanosoma cruzi (strain CL Brener)) | IC50 = ____
result: 1

query: Form: Entry = Oc1c(-c2nnc(Cc3ccc(Cl)cc3)[nH]2)ncc2cccnc12 | System = Sterol 14-alpha demethylase (Trypanosoma cruzi (strain CL Brener)) | IC50 = ____
result: 31.6

query: Form: Entry = C[C@@H](Oc1cc(-n2cnc3ccc(C(O)CO)cc32)sc1C(N)=O)c1ccccc1C(F)(F)F (stereo partly drawn) | System = Sterol 14-alpha demethylase (Trypanosoma cruzi (strain CL Brener)) | IC50 = ____
result: 25.1

query: Form: Entry = CC(CCc1ccccc1)NC(=O)CN(Cc1ccccn1)Cc1ccccn1 (stereo not drawn) | System = Sterol 14-alpha demethylase (Trypanosoma cruzi (strain CL Brener)) | IC50 = ____
result: 63.1

query: Form: Entry = O=C(CC1(O)C(=O)N(Cc2cccs2)c2ccc(Br)cc21)c1cccnc1 (stereo not drawn) | System = Sterol 14-alpha demethylase (Trypanosoma cruzi (strain CL Brener)) | IC50 = ____
result: 12.6

query: Form: Entry = CC(C)S(=O)(=O)c1ccc(-c2cnc(N)c3cc(-c4ccnc(N)n4)ccc23)cc1 | System = Sterol 14-alpha demethylase (Trypanosoma cruzi (strain CL Brener)) | IC50 = ____
result: 15.8

query: Form: Entry = CN1CCC(N(C)c2nccc(N3CCN(C(=O)c4cccc(-c5cccnc5)c4)CC3)n2)CC1 | System = Sterol 14-alpha demethylase (Trypanosoma cruzi (strain CL Brener)) | IC50 = ____
result: 1.58

More entries:
query: Form: Entry = Cc1nccn1C1CCCN(C(=O)c2cc3c(F)cccc3s2)C1 (stereo not drawn) | System = Sterol 14-alpha demethylase (Trypanosoma cruzi (strain CL Brener)) | IC50 = ____
result: 50.1

query: Form: Entry = O=C(N[C@H](CO)c1ccccc1)c1ccc(-c2c[nH]c3nccc(C(F)(F)F)c23)s1 | System = Sterol 14-alpha demethylase (Trypanosoma cruzi (strain CL Brener)) | IC50 = ____
result: 6.31

query: Form: Entry = N#Cc1cc(N2CCCC2=O)ccc1Sc1ccccc1CO | System = Sterol 14-alpha demethylase (Trypanosoma cruzi (strain CL Brener)) | IC50 = ____
result: 20

query: Form: Entry = O=C(NCCCn1cnc2ccccc21)c1ccc(NC(=O)c2ccco2)cc1 | System = Sterol 14-alpha demethylase (Trypanosoma cruzi (strain CL Brener)) | IC50 = ____
result: 15.8

query: Form: Entry = COc1ccc(S(=O)(=O)NCc2ccc(-c3ccc(CN(C)CCO)cc3)cc2)cc1 | System = Sterol 14-alpha demethylase (Trypanosoma cruzi (strain CL Brener)) | IC50 = ____
result: 15.8

query: Form: Entry = CN(Cc1nc2ccccc2s1)C(=O)C=Cc1cc2ccccc2o1 | System = Sterol 14-alpha demethylase (Trypanosoma cruzi (strain CL Brener)) | IC50 = ____
result: 0.158

query: Form: Entry = CC(=O)NC1(c2ccccc2)CCN(CC(=O)Nc2ccccc2-c2ccccc2)CC1 | System = Sterol 14-alpha demethylase (Trypanosoma cruzi (strain CL Brener)) | IC50 = ____
result: 50.1

query: Form: Entry = O=C(CN1CCN(S(=O)(=O)c2cccc([N+](=O)[O-])c2)CC1)Nc1ccc(Oc2ccccc2)cc1 | System = Sterol 14-alpha demethylase (Trypanosoma cruzi (strain CL Brener)) | IC50 = ____
result: 2.51
